B1: TPR t1 (parent)
chain: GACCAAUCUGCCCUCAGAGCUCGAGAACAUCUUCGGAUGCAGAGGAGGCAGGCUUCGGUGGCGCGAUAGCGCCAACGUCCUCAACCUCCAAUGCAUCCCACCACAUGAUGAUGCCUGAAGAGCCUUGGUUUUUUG

variants of: B1; experiment: polymerase ribozyme fitness, log enrichment relative to wild type (log ratio); higher = more active; in vitro selection for triplet polymerase activity
Each record gets a class by polymerase ribozyme fitness (log ratio): one (below -3), two (-3 to below -2), three (-2 or more)

Field: class (polymerase ribozyme fitness (log ratio)) — entry: "GACCAAUCUGCCCUCAGAUCUCGAGAACAUCUUCGGAUGCAGAGGAGGCAGGCUUCGGUGGCGCGAUAGCGCCAACGUCCUCAACCUCCAAUGCAUCCCACCACAUGAUGCUGCCUGAAGAGCCUUGGUUUUUUG"
two

Input "GUCCAAUCUGCACUCAGAGCUCGAGAACAUCUUCGGAUGCAGAGGAGGUAGGCUUCGGUGGCGCGAUAGCGCCAACGUCCUCAACCUCCAAUGCAUCCCACCACAUGAUGAUGCCUGAAGAGCCUUGGUUUUUUG"
one

Input "GACCAAUCUGCCCUCAGAGCUGGAGAACAUCUUCGGAUGCAGAGGAGACAGGCUUCGGUGGCGCGAUACCGCCAACGACCUCAACCCCCAAUGCAUCCCACCACAUGAUGAUGCCUGAAGAGCCUUGGUUUUUUG"
one

Input "GACCAAUCUGCCAUCAGAGUUCGAGAACAUCUUCGGAUGCAUAAGAGGCAGGCUUCGGUGGCGCGAUAGCGCCAACGUCCUCAACCUCCAAUGCAUCCCACUACAUGAUGAUGCCUGAAGAGCCUUCGUUUUUUG"
one

Input "GACCAAUCUGCCAUCAGAGAUCGAGAACAUCUUCGGAUGCAGAGGAGGCAGGCUUCGGUGGCGCGAUAGCGCCAACGUCCUCAACCUCCAAUGCAUCCCACCACAUGAUGAUGCCUGAAGAGCCUUGGUUUUUUG"
one

Input "GACCAAUCUGCCGUCAGAGCUCGAGAACAUCUUCGGAUGCAGAGGAGGCAGGCUUCGGUGGCGCGAUAGCGCCAACGUCCUCAACCUCCAAUGCAUCCCACCACAUGAUGAAACCUGAAGAGCCUUGGUUUUUUG"
two

Input "GACCAAUCUGGCCUCAGAGCUCGAGAACAUCUUCGGAUGCAGACGAGGCAGGCUUCGGUGGCGCGAUAGCGCCAACAUCAUCAACCUCCAAUGCAUCCCACCACAUGAUGAUGCCUGAAGAGCCUUGGUAAUUUG"
one

Input "GACCAAUCUGCCCUCAGAGCUCGAGAACAUCUUCGGAUGCAGGGGAGGCAGGCUCCGGUGGUGCGAUAGCGCCAACGUCCUCAACCUCCAAUGCAUCCCACCACAUGAAGAUGCCUGAAGAGCCUUGGUUUUUUC"
one

Input "GACCAAUCUGCCCUCAGUGCUCGAGAACAUCUUCGGAUGCAGAGGAGGCAGGCUUCGAUGGCGCGAUAGCGCCAACGUCCUCAACCUCCAAUGCAUCCCACCACAUGAUGAAGCCUGAAGAUCCUUGGUUUUUUG"
two

Input "GACCAAUCUGCCCUCAGAGCUCGAGAACAUCUUCGGAUGCAGAGGAGGCAGGCUCCGGUGGCGCGAUAGCACCAACGUCCUCAACCUCCGAUGCAUCCCACCACAUGAUGAUUCCUGAAGAGCCUUGGUUUUUUG"
two

Input "GACCAAUCUGCCCUCAGAGCUCGAGAACAUCUUCGGAUGCAGAGGAGGCAGGCUUCGGUGGCUCGAUAGCGCCAACGGCCACAACCUCCAAUGCAUCCCACCACAUGAUGAUGCCUGUAGAGCCUUGGCUUUUUG"
one

Input "GACCAAUCUUCCCUCAGAGCUCGAGAACAUCUUCGGAUGCAGAGGAGGCAGGCUUCGGUGGCGCGAUAGUGCCAACGUCCUCUACCUCCGAUGCAUCCCACCACAUGAUGAUGCUUGAAGAGCCUUGGUUUUUUG"
two

Input "GACCAAUCAGCCCUCAGAGCUCGAGAACAUCUUCGGAUGCAGAGGAGGCAGGCUUUGGUGGCGCGAUAGCGCUAACGUCCUCAACCUCCAAUGCAUCCCACCACAUGAUGAUGCCUGAAGAGCCUUGGUUUUUUG"
three

Input "GACCAAUCUGCCCUCUGAGCUCGAGAACAUCUUCGGAUGCAGAGGAGGCAGGCUUCGGAGGCGCGAUAGCGCCAACGUCCUCAACCUCCAAUGCAUCCCACCACAUGAUGAUGCCUGAAGAGCAUUGGUUUUUUG"
three

Input "GACCAAUCUGCCCUCAGAGCUCGAGAACAUCUUCGGAUGCAGAGGAGGCAGGCUUCGGUGGCGCGAUAGCGCCAACGUCCUCAACCUCCAAUGCAUUCCACCACAUGAUGAGGCCUGAAGAGCCUUGGUUUUUUG"
three

Input "GACCAAUCUGCACUCAGAGCUCGAGAACAUCUUCGGAUGCAGAGGAGGCAGGCUUCGGUGGCGCGAUAGCGCCAACGUCCUCAAUCUCCAAUGCAUCCCACCACAUGAUGAUGCCUGAAGAGCCUUGGUUUUUUG"
three

Input "GACCAAUCUGCCCUAAGAGCUCGAGAACAUCUUCGGAUGCAGAGGAUGCAGGCUUCGGUGUCGCGAUAGCGCCAACGUCCUCAACCUCCAAUGCAUCCCACCACAUGAUAAUGCCUGAAGAGCCUUGGUUUUUUG"
one

Input "GACCAAUCUGCCCUCAGAGCUCGAGAACAUCUUCGGAUGUAGAGGAGGCAGGCUUCGGUGGCCCGAUAGCGCCAACGUCCUCAACCUCCAAUGCAUCUCUUCACAUGAUGAUGCCUGAAGAGCCUUGGUUUUUUG"
one

Input "GACCAAUCUGCCCUCAGAGCUCGAGAACAUCUUCGGAUGCAGAGGAGGCAGGCUUCGGUGGCGCGAUAGCGCCAACUUCCUCAACCUCCAAUGCAUCCCACCACAUGAUGAUGCCUGAAGAGCGUUGGUUUUUUG"
three
